Test system: MS2 coat protein
Experiment: apparent KD of MS2 coat protein, switch OFF state (with FMN for OFF switches, without FMN for ON switches); designed switch direction (-1 OFF switch, 1 ON switch): -1; higher = weaker reporter binding
Experimental Parameters: FMN input: 0 or 200 uM; Eterna round: R93 (includes R88 designs)
Reported apparent KD of MS2 coat protein values for a set of sequences
Measure: apparent KD of MS2 coat protein (nM)

Residue String | Experimental Target | Measure | Result Value
AAAAAACAUGAGGAUCACCCAUGUGAGGAUAUCUGUAUCCAAAAGGAAGUGUAGGAUCAGAGAAGGCACUAGGA [Power strip] | MS2 coat protein | apparent KD of MS2 coat protein | 83.8
AACAGUACAGGAUAUACAUGAGGAUCACCCAUGUAGAGAGAAUAAAACAAAAAUAAAUGUAGAAGGGUACUGGA [Moding Maslow revisited (73) 23] | MS2 coat protein | apparent KD of MS2 coat protein | 26.1
AAAAAGUGAGGAUAUACAGAUAAAAAAACGAAAAAAAAUCUGUAGAAGGCACAUGAGGAUCACCCAUGUAAAAA [Ex 4 May 3] | MS2 coat protein | apparent KD of MS2 coat protein | 39
UGCAGGUGAGGAUAUGCGGGCGAGCUAACAUAAGCAUCGAAGCAGAAGGCACAUGAGGAUCACCCAUGUAGUCC [Ex4_Neo] | MS2 coat protein | apparent KD of MS2 coat protein | 27.2
AAUAAACAUGAGGAUCACCCAUGUCAGGAUAUGCAUCUAACAUAAUAACAUAAAUACAGCAGAAGGGACUAAUA [JR_Exc001_Sub601] | MS2 coat protein | apparent KD of MS2 coat protein | 20.6
AAAAACCAAGGAUAUACAUGAGGAUCACCCAUGUAAAAAAAAAAAAAGGGAAAAAAAAGUAGAAGGUGGAAAAA [Sekhemre Shedtawy Sobekemsaf II] | MS2 coat protein | apparent KD of MS2 coat protein | 38.6
